Target: ZIPK (h) (Homo sapiens)
Sequence (O43293 whole entry): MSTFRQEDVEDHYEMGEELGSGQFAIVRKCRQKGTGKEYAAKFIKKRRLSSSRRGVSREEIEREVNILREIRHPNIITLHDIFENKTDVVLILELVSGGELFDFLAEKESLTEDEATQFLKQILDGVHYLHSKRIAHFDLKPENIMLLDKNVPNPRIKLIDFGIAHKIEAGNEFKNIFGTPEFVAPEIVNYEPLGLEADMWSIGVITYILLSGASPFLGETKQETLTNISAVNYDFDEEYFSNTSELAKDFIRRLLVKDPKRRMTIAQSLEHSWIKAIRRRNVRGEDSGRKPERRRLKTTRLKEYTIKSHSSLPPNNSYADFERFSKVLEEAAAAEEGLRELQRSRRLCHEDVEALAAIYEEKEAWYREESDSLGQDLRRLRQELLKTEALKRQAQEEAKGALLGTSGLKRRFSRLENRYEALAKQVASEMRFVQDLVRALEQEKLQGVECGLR
Assay: Kinase Profiling Assay
Type: biochemical
Conditions: 100 μM
Procedure: Every kinase activity measurement was conducted in duplicate. Specifically, in these assays, a positively charged substrate is phosphorylated with a radiolabeled phosphate group from an ATP if the kinase is not inhibited by an inhibitor peptide. The positively charged substrate then is attracted to a negatively charged filter membrane, quantified with a scintillation counter, and compared to a 100% activity control. […]
attribute measured: % activity (%)
// return numeric value only (unit: %, not printed)

Reference set, count: 3
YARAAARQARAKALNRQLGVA (Mammalian) [MMI-0200] ... 67
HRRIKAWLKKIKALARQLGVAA (Mammalian) [MMI-0500] ... 1
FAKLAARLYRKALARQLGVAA [MMI-0300] ... 28

Request: Write down % activity measured for item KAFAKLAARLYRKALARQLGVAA [MMI-0400]
Response: 13

Values compiled from patent US10500249B2.
